Kindly supply the reported inhibition of histamine-induced bronchospasm, Vmaxi values for the records listed here.
Test system: histamine-induced bronchospasm
Assay: inhibition of histamine-induced bronchospasm in anesthetized guinea pigs
Type: in vivo, guinea pig
Conditions: 20 μmol/kg i.v.; 30 min
Answers are plain numbers, in %.

Go through the items and report each one's inhibition of histamine-induced bronchospasm, Vmaxi.
1. COc1cc(-c2ccc(=O)[nH]n2)ccc1OCC(C)C [Serial No. 16]
2. Cn1c(=O)c2[nH]cnc2n(C)c1=O [Theophylline, theophylline, reference compound]
3. COc1ccc(-c2ccc(=O)[nH]n2)cc1OC(C)C [Serial No. 11]
4. COc1ccc(-c2ccc(=O)[nH]n2)cc1OCC(C)C [Serial No. 15]

Result block:
[34, 8, 47, 82]

Entry source: patent US4707481A
